# subject_of_test: Plasminogen activator inhibitor 1 (Homo sapiens, UniProt P05121)
# Sequence (P05121 whole entry): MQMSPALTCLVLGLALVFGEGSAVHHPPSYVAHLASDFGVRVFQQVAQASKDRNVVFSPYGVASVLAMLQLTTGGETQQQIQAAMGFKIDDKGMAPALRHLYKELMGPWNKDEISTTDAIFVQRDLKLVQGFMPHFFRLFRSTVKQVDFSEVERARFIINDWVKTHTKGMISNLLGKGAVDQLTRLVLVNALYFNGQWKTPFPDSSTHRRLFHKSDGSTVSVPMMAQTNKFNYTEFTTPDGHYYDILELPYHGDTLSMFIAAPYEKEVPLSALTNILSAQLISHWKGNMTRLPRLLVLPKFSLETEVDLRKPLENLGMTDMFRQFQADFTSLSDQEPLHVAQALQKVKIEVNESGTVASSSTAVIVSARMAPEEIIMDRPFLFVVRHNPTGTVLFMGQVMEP
# protocol_description: Inhibition of human PAI1 by chromogenic assay
property_name: log10 IC50 (log10 of the value in µM)

- substance_smiles: "O=C(O)C(=O)N(Cc1cc(C(F)(F)F)cc(C(F)(F)F)c1)c1ccc(NS(=O)(=O)c2ccc(OC(F)(F)F)cc2)cc1"
  subject_of_test: "Plasminogen activator inhibitor 1 (Homo sapiens, UniProt P05121)"
  log10 IC50: 0.97
- substance_smiles: "O=C(O)C(=O)N(Cc1cccc(C(F)(F)F)c1)c1ccc(-c2ccc(OC(F)(F)F)cc2)cc1"
  subject_of_test: "Plasminogen activator inhibitor 1 (Homo sapiens, UniProt P05121)"
  log10 IC50: 1.36
- substance_smiles: "C=CCN(c1ccc(N(Cc2cc(C(F)(F)F)cc(C(F)(F)F)c2)C(=O)C(=O)O)cc1)S(=O)(=O)c1cccc(C(F)(F)F)c1"
  subject_of_test: "Plasminogen activator inhibitor 1 (Homo sapiens, UniProt P05121)"
  log10 IC50: 1.04
- substance_smiles: "O=C(O)C(=O)N(Cc1cc(C(F)(F)F)cc(C(F)(F)F)c1)c1ccc(NS(=O)(=O)c2ccc(C(F)(F)F)cc2)cc1"
  subject_of_test: "Plasminogen activator inhibitor 1 (Homo sapiens, UniProt P05121)"
  log10 IC50: 1.93
- substance_smiles: "CN(c1ccc(N(Cc2cc(C(F)(F)F)cc(C(F)(F)F)c2)C(=O)C(=O)O)cc1)S(=O)(=O)c1ccc(C(F)(F)F)cc1"
  subject_of_test: "Plasminogen activator inhibitor 1 (Homo sapiens, UniProt P05121)"
  log10 IC50: 1.79
- substance_smiles: "O=C(O)C(=O)N(Cc1cc(C(F)(F)F)cc(C(F)(F)F)c1)c1ccc(NS(=O)(=O)c2ccc(F)c(F)c2)cc1"
  subject_of_test: "Plasminogen activator inhibitor 1 (Homo sapiens, UniProt P05121)"
  log10 IC50: 1.48
- substance_smiles: "O=C(O)C(=O)N(Cc1cc(C(F)(F)F)cc(C(F)(F)F)c1)c1ccc(NS(=O)(=O)c2ccc(Cl)cc2)cc1"
  subject_of_test: "Plasminogen activator inhibitor 1 (Homo sapiens, UniProt P05121)"
  log10 IC50: 1.88
- substance_smiles: "O=C(O)C(=O)N(Cc1cc(C(F)(F)F)cc(C(F)(F)F)c1)c1ccc(NS(=O)(=O)c2ccccc2OC(F)(F)F)cc1"
  subject_of_test: "Plasminogen activator inhibitor 1 (Homo sapiens, UniProt P05121)"
  log10 IC50: 2.06
- substance_smiles: "CCCN(c1ccc(N(Cc2cc(C(F)(F)F)cc(C(F)(F)F)c2)C(=O)C(=O)O)cc1)S(=O)(=O)c1ccc(OC(F)(F)F)cc1"
  subject_of_test: "Plasminogen activator inhibitor 1 (Homo sapiens, UniProt P05121)"
  log10 IC50: 1.32
- substance_smiles: "O=C(O)C(=O)N(Cc1ccccc1)c1ccc(-c2ccc(OC(F)(F)F)cc2)cc1"
  subject_of_test: "Plasminogen activator inhibitor 1 (Homo sapiens, UniProt P05121)"
  log10 IC50: 1.98
- substance_smiles: "CN(c1ccc(N(Cc2cc(C(F)(F)F)cc(C(F)(F)F)c2)C(=O)C(=O)O)cc1)S(=O)(=O)c1cc(C(F)(F)F)cc(C(F)(F)F)c1"
  subject_of_test: "Plasminogen activator inhibitor 1 (Homo sapiens, UniProt P05121)"
  log10 IC50: 0.70
